- System: DU-145 prostate
- assay-details: NCI tumour cell line growth inhibition, 48 h
recorded-metric: TGI

Asked: Reported TGI for DU-145 prostate, given O=C(Nc1ccc(Cl)cc1)Nc1ccc(Cl)c(C(F)(F)F)c1 ?
Given back: 12.4 µM

Asked: Reported TGI for DU-145 prostate, given C=C(C(=O)OC)N1C(=O)CC(C)C1=O (configuration not stated) ?
Given back: 29.8 µM

Asked: Reported TGI for DU-145 prostate, given CC(=O)N/C=C/c1cc(O)ccc1O ?
Given back: > 100 µM

Asked: Reported TGI for DU-145 prostate, given Cn1c(-c2ccccc2)cc(-c2cccs2)c1-c1ccsc1 ?
Given back: > 100 µM

Asked: Reported TGI for DU-145 prostate, given O=C1OC2C=CCC1C2 (configuration not stated) ?
Given back: > 100 µM

Asked: Reported TGI for DU-145 prostate, given CC(C)(C)OC(=O)NC(CSCc1ccc(C(=O)c2ccccc2)cc1)C(=O)O (configuration not stated) ?
Given back: > 100 µM

Asked: Reported TGI for DU-145 prostate, given COc1cc(/C=C2\C(=O)Nc3ccccc32)cc(OC)c1O ?
Given back: 46.4 µM

Asked: Reported TGI for DU-145 prostate, given COc1ccc(-c2ccc(-c3ccc(C(=N)N)c(F)c3)s2)cc1 ?
Given back: 1.76 µM

Asked: Reported TGI for DU-145 prostate, given Cn1c(-c2ccncc2)c(-c2ccc(F)cc2)c2ncccc21 ?
Given back: > 25 µM

Asked: Reported TGI for DU-145 prostate, given CCOP(=O)(O)CC1OC(CO)C(O)C1O (configuration not stated) ?
Given back: > 100 µM

Asked: Reported TGI for DU-145 prostate, given COc1ccc(-c2cc(=O)c3c(O)cc(O)cc3o2)cc1OC ?
Given back: > 100 µM

Asked: Reported TGI for DU-145 prostate, given O=c1ccccc(-c2ccc(Br)cc2)c1O ?
Given back: 45 µM

###

- System: SF-295 CNS
- assay-details: NCI tumour cell line growth inhibition, 48 h
Decision: TGI compared against 30 µM; not below it gives class 1, below it gives class 0.

Asked: Can c1ccc(-c2nnc(CCCCCCCCc3nnc(-c4ccccc4)o3)o2)cc1 be said to have TGI at or above 30 µM?
Given back: class 1

Asked: Can COc1ccc(C(NS(=O)(=O)c2ccc(C)cc2)c2c(C(CBr)OC)c3ccccc3n2S(=O)(=O)c2ccccc2)cc1OC (stereo unspecified) be said to have TGI at or above 30 µM?
Given back: class 1

Asked: Can C=C1CC2(CCOc3ccc(Cl)cc32)OC1=O (stereo unspecified) be said to have TGI at or above 30 µM?
Given back: class 0

Asked: Can COc1cc(C2CC(c3cccc(Nc4ccncc4)c3)=NN2c2ccccc2)cc(OC)c1OC (stereo unspecified) be said to have TGI at or above 30 µM?
Given back: class 0

Asked: Can CC1=CC2C(=O)N(c3ccccc3)C(=O)C2CC1n1[nH]c(=O)n(Cc2ccccc2)c1=O (stereo unspecified) be said to have TGI at or above 30 µM?
Given back: class 1

Asked: Can COc1ccc(-c2nc(Sc3c([N+](=O)[O-])ncn3C)n[nH]2)cc1 be said to have TGI at or above 30 µM?
Given back: class 0

Asked: Can O=[N+]([O-])/C(C(Cl)=C(Cl)Cl)=C(/Br)SCc1ccccc1 be said to have TGI at or above 30 µM?
Given back: class 1

Asked: Can Cc1[nH]c(=O)nc2nc3ccc(Cl)cc3c(N(CCO)CCO)c12 be said to have TGI at or above 30 µM?
Given back: class 1

Asked: Can CCc1n[nH]c(=O)n1O be said to have TGI at or above 30 µM?
Given back: class 1

Asked: Can Cn1c(-c2ccccc2)cc(-c2cccs2)c1-c1ccsc1 be said to have TGI at or above 30 µM?
Given back: class 1
